Data origin, for the record: PubChem BioAssay (NCATS)

Tested on: Zika virus NS2B-NS3 protease (linked construct)
EXPERIMENT: Primary screen NINDS Rhodamine qHTS for Zika virus inhibitors (AID 1347160); further: nearly all actives have a fitted effect of over 55% in size
PROTOCOL CONDITIONS: purified NS2B-NS3 protease, Rhodamine110 substrate fluorescence; series mostly up to 57.1 µM
Records with an inconclusive call do not appear. Active and inactive are the calls of the source. The call rests on the fitted dose curve; in most records, active means well fitted inhibition curve with a large enough effect; inconclusive means small, poorly fitted or top-dose-only effect; inactive means no such curve, though single readings can be large or run the other way.
READOUT NAME: outcome

>>> result("C=C(CO)[C@@]12O[C@@H]1[C@@]1(C)C(=CC2=O)CC[C@@H](O)[C@@H]1C")
"inactive"
>>> result("C[C@]12CC[C@H](O)C[C@@]1(O)CC[C@@H]1[C@@H]2CC[C@]2(C)[C@@H](c3ccc(=O)oc3)CC[C@]12O")
"inactive"
>>> result("C=C(CO)C(=O)O[C@H]1CC(=C)[C@@H]2C[C@H](O)C(=C)[C@@H]2[C@H]2OC(=O)C(=C)[C@@H]21")
"inactive"
>>> result("CN1C(=O)CN=C(c2ccccc2Cl)c2cc(Cl)ccc21")
"inactive"
